Data provenance is PubChem BioAssay (NCI).

System: MDA-MB-468 breast
protocol-details: NCI-60 one-dose screen, 48 h (100 = growth as untreated, 0 = no growth, -100 = all killed)
experimental-parameters: 10 µM unless noted
Compounds without any hit were thinned out: in the full panel of roughly 83,000, 20% have a hit.
recorded-endpoint: growth (%)
Respond with the bare value in %.

Example results:
get_value(item= `NC(=O)c1ccc[n+](Cc2ccccc2)c1` , readout=growth) returns 98.4

get_value(item= `COc1ccc2c(c1)NC(=O)CN2c1nc(NC2CC2)nc2ccccc12` , readout=growth) returns 8.4

get_value(item= CCCC(C)c1cc(Cc2cc(Cl)cc(Cl)c2O)c(O)c(Cc2cc(Cl)cc(Cl)c2O)c1 (stereo not given) , readout=growth) returns -1.2

get_value(item= `O=C(Nc1ccc(Nc2ccncc2)cc1)c1ccc(Nc2ccnc3ccc([N+](=O)[O-])cc23)cc1` , readout=growth) returns 83.4

get_value(item= `COC(=O)[C@H](CC(C)C)NC(=O)NC(=O)NC(=O)CI` , readout=growth) returns 75.9

get_value(item= `Nc1ccc(Sc2ccc3c4c2cccc4c(=O)n2c4ccccc4nc32)cc1` , readout=growth) returns 43.5

Read the next record carefully.
get_value(item= `Nc1ncnc2c1ccn2-c1cccc(NC(=O)c2cccc(C(F)(F)F)c2)c1` , readout=growth) returns 31.3

====

Test system: UACC-257 melanoma
protocol-details: NCI-60 one-dose screen, 48 h (100 = growth as untreated, 0 = no growth, -100 = all killed)
experimental-parameters: 10 µM
The panel holds about 83,000 compounds, 20% with a hit somewhere; the sample as a whole holds those more often.
Reported growth is given for each of the following compounds.
Respond with the bare value in %.

Example results:
Summary: `O=C1S/C(=C\c2ccc([N+](=O)[O-])cc2)C(=O)N1CCN1CCCCC1` , UACC-257 melanoma, growth = 112

Summary: `Cc1ccc2c(c1)C(=O)/C(=C/c1ccc([N+](=O)[O-])cc1)S2` , UACC-257 melanoma, growth = 101

Further cases:
Summary: `Cc1ccc(COc2ccc(NC(=O)Nc3ccc(Cl)c(C(F)(F)F)c3)cc2)cc1` , UACC-257 melanoma, growth = 76.1

Summary: `O=C(CN1CCN(c2ncnc3c2cnn3-c2ccccc2)CC1)Nc1ccc(Br)cc1` , UACC-257 melanoma, growth = 58.7

Summary: `COc1ccc(Cc2nn(CC(=O)N/N=C/c3ccc([N+](=O)[O-])cc3)c(=O)c3c(C)noc23)cc1` , UACC-257 melanoma, growth = 92.8

Summary: `COc1ccc2[nH]cc(-c3nc(N)nnc3-c3cn(C)c4ncc(Br)cc34)c2c1` , UACC-257 melanoma, growth = 39

Summary: `Cc1ccc(-c2nc(C#N)c(S(=O)(=O)N3CCN(S(C)(=O)=O)CC3)o2)cc1` , UACC-257 melanoma, growth = 57.7

====

Test system: MDA-MB-468 breast
protocol-details: NCI-60 one-dose screen, 48 h
experimental-parameters: 10 µM unless noted
About 83,000 compounds went through this panel and 20% of them were active in at least one assay; those are over-represented in the sample as a whole. Activity calls are given as the source filed them. Rule for the calls: active = growth percent below 10; inactive = the rest.
Give your call using only these classes: TRUE (active), FALSE (inactive)

Use these answered entries as a reference point.
Record lookup: outcome of this test for `CC(=O)c1ccc(Nc2nc(Cl)nc(Oc3c(Cl)cccc3Cl)n2)cc1` ?
FALSE

Record lookup: outcome of this test for Cc1cc(C(O)(c2ccc(Nc3ccccc3)cc2)c2ccc(Nc3ccc(S(=O)(=O)O)cc3)cc2)ccc1N (stereo unspecified) ?
TRUE

Record lookup: outcome of this test for `C#COc1cccc(Nc2ncnc3ncc(NC(=O)CCl)cc23)c1` ?
TRUE

Record lookup: outcome of this test for COc1cc(C2CC(c3ccc4c(c3)OCO4)=NN2C=O)cc(OC)c1OC (stereo unspecified) ?
TRUE

Record lookup: outcome of this test for `O=C(/C=C/c1cccs1)Nc1ncc(Cc2ccc(Cl)c(Cl)c2)s1` ?
FALSE

Record lookup: outcome of this test for `CC(=O)Nc1ncc(S(=O)(=O)c2ccc([N+](=O)[O-])cc2)s1` ?
FALSE

Here is the next item to consider.
Record lookup: outcome of this test for `O=C(NNc1nc2cc(F)ccc2n2c(CO)ccc12)c1cnccn1` ?
TRUE
